Reference source: paper PMC5701947

# System: T cells (lymph node cells/splenocytes from immunized animals)
# experimental-protocol: T cell proliferation assay ([3H]-thymidine)
# Assay type: cell-based, A/J mice
# condition: 10 μg/ml; animals immunized with pool VIII; fold vs medium control
recorded-metric: T cell responses (fold)
Numeric answer only, unit fold assumed.

The examples below pair each entry with its known result.
Value lookup for T cell responses; key = β1AR 391-410: 20-mer of mouse β1AR peptide library (RAAHGDRPRASGCLARAGPP; UniProt P34971 391-410, looked up, fragment)
1.03

# repeat for β1AR 381-400: 20-mer of mouse β1AR peptide library (CCARRAACRRRAAHGDRPRA; UniProt P34971 381-400, looked up, fragment)
1.10

# repeat for β1AR 371-390: 20-mer of mouse β1AR peptide library (DFRKAFQRLLCCARRAACRR; UniProt P34971 371-390, looked up, fragment)
1.14

Further cases:
Value lookup for T cell responses; key = β1AR 411-430: 20-mer of mouse β1AR peptide library (PSPGAPSDDDDDDAGTTPPA; UniProt P34971 411-430, looked up, fragment)
0.93

# repeat for β1AR 401-420: 20-mer of mouse β1AR peptide library (SGCLARAGPPPSPGAPSDDD; UniProt P34971 401-420, looked up, fragment)
0.90

# repeat for VNTFVHESLADVQA [RNase 43–56, bovine ribonuclease 43–56, irrelevant control, reference compound]
0.91

====

# Tested on: T cells (lymph node cells/splenocytes from immunized animals)
# experimental-protocol: T cell proliferation assay ([3H]-thymidine)
# Assay type: cell-based, A/J mice
# condition: 10 μg/ml; animals immunized with pool IV; fold vs medium control
# Protocol: At termination, lymph nodes (maxillary, mandibular, axillary, inguinal, and popliteal) and spleens were harvested from immunized animals to prepare single cell suspensions. Similarly, splenocytes were prepared from naive animals. […]
recorded-metric: T cell responses (fold)
Numeric answer only, unit fold assumed.

The examples below pair each entry with its known result.
Value lookup for T cell responses; key = VNTFVHESLADVQA [RNase 43–56, bovine ribonuclease 43–56, irrelevant control, reference compound]
1.06

# repeat for β1AR 201-220: 20-mer of mouse β1AR peptide library (AESDEARRCYNDPKCCDFVT; UniProt P34971 201-220, looked up, fragment)
1.08

# repeat for β1AR 191-210: 20-mer of mouse β1AR peptide library (FLPILMHWWRAESDEARRCY; UniProt P34971 191-210, looked up, fragment)
1.26

# repeat for TRARARALVCTVWAISALVS [β1AR 171-190, 20-mer of mouse β1AR peptide library]
2.68

# repeat for NDPKCCDFVTNRAYAIASSV [β1AR 211-230, 20-mer of mouse β1AR peptide library]
3.15

Now for a further substance.
Value lookup for T cell responses; key = TVWAISALVSFLPILMHWWR [β1AR 181-200, 20-mer of mouse β1AR peptide library]
1.70

====

# System: T cells (lymph node cells/splenocytes from immunized animals)
# experimental-protocol: T cell proliferation assay ([3H]-thymidine)
# Format: cell-based, A/J mice
# condition: 10 μg/ml; animals immunized with pool VI; fold vs medium control
recorded-metric: T cell responses (fold)
Numeric answer only, unit fold assumed.

Value lookup for T cell responses; key = VNTFVHESLADVQA [RNase 43–56, bovine ribonuclease 43–56, irrelevant control, reference compound]
0.73

# repeat for β1AR 301-320: 20-mer of mouse β1AR peptide library (SRLVALREQKALKTLGIIMG; UniProt P34971 301-320, looked up, fragment)
2.03

Further cases:
Value lookup for T cell responses; key = β1AR 271-290: 20-mer of mouse β1AR peptide library (RPPSPEPSPSPGPPRPADSL; UniProt P34971 271-290, looked up, fragment)
1.05

====

# System: T cells (lymph node cells/splenocytes from immunized animals)
# experimental-protocol: T cell proliferation assay ([3H]-thymidine)
# Assay type: cell-based, A/J mice
# condition: 100 μg/ml; animals immunized with pool VII; fold vs medium control
recorded-metric: T cell responses (fold)
Numeric answer only, unit fold assumed.

The examples below pair each entry with its known result.
Value lookup for T cell responses; key = β1AR 331-350: 20-mer of mouse β1AR peptide library (LANVVKAFHRDLVPDRLFVF; UniProt P34971 331-350, looked up, fragment)
1.49

# repeat for VNTFVHESLADVQA [RNase 43–56, bovine ribonuclease 43–56, irrelevant control, reference compound]
1.16

Further cases:
Value lookup for T cell responses; key = β1AR 321-340: 20-mer of mouse β1AR peptide library (VFTLCWLPFFLANVVKAFHR; UniProt P34971 321-340, looked up, fragment)
2.21

====

# Tested on: T cells (lymph node cells/splenocytes from immunized animals)
# experimental-protocol: T cell proliferation assay ([3H]-thymidine)
# Type: cell-based, A/J mice
# condition: 100 μg/ml; animals immunized with pool VII; fold vs medium control
Overview of recorded T cell responses for various substances
Numeric answer only, unit fold assumed.

The examples below pair each entry with its known result.
Value lookup for T cell responses; key = β1AR 341-360: 20-mer of mouse β1AR peptide library (DLVPDRLFVFFNWLGYANSA; UniProt P34971 341-360, looked up, fragment)
1.47

# repeat for β1AR 361-380: 20-mer of mouse β1AR peptide library (FNPIIYCRSPDFRKAFQRLL; UniProt P34971 361-380, looked up, fragment)
1.82

Now for a further substance.
Value lookup for T cell responses; key = β1AR 351-370: 20-mer of mouse β1AR peptide library (FNWLGYANSAFNPIIYCRSP; UniProt P34971 351-370, looked up, fragment)
1.82

====

# Tested on: T cells (lymph node cells/splenocytes from immunized animals)
# experimental-protocol: T cell proliferation assay ([3H]-thymidine)
# Format: cell-based, A/J mice
# condition: 100 μg/ml; animals immunized with pool II; fold vs medium control
# Protocol: At termination, lymph nodes (maxillary, mandibular, axillary, inguinal, and popliteal) and spleens were harvested from immunized animals to prepare single cell suspensions. Similarly, splenocytes were prepared from naive animals. […]
recorded-metric: T cell responses

The examples below pair each entry with its known result.
Value lookup for T cell responses; key = β1AR 51-70: 20-mer of mouse β1AR peptide library (APLSQQWTAGMGLLLALIVL; UniProt P34971 51-70, looked up, fragment)
1.38 fold

# repeat for β1AR 81-100: 20-mer of mouse β1AR peptide library (VAIAKTPRLQTLTNLFIMSL; UniProt P34971 81-100, looked up, fragment)
2.36 fold

Now for a further substance.
Value lookup for T cell responses; key = BAR 101-120: 20-mer of mouse β1AR peptide library (ASADLVMGLLVVPFGATIVV; UniProt P34971 101-120, looked up, fragment)
1.02 fold

====

# Tested on: T cells (lymph node cells/splenocytes from immunized animals)
# experimental-protocol: T cell proliferation assay ([3H]-thymidine)
# Type: cell-based, A/J mice
# condition: 10 μg/ml; animals immunized with pool IX; fold vs medium control
recorded-metric: T cell responses (fold)
Numeric answer only, unit fold assumed.

Value lookup for T cell responses; key = β1AR 431-450: 20-mer of mouse β1AR peptide library (RLLEPWTGCNGGTTTVDSDS; UniProt P34971 431-450, looked up, fragment)
1.14

# repeat for β1AR 441-460: 20-mer of mouse β1AR peptide library (GGTTTVDSDSSLDEPGRQGF; UniProt P34971 441-460, looked up, fragment)
0.79

# repeat for VNTFVHESLADVQA [RNase 43–56, bovine ribonuclease 43–56, irrelevant control, reference compound]
0.80

# repeat for β1AR 451-466: 16-mer of mouse β1AR peptide library (SLDEPGRQGFSSESKV; UniProt P34971 451-466, looked up, fragment)
0.95

Now for a further substance.
Value lookup for T cell responses; key = β1AR 421-440: 20-mer of mouse β1AR peptide library (DDDAGTTPPARLLEPWTGCN; UniProt P34971 421-440, looked up, fragment)
1.12
